molecular target: NL63 FP peptide (NL63), Q6Q1S2; assay: peptide ELISA
Sequence (Q6Q1S2 867-886 limits assumed): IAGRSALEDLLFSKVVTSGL
quantity_measured: EC50 (µg/mL)
Numbers only, in µg/mL.

Here's what some known entries look like.
fp.009 (antibody, V domains shown) VH: VQLVESGGGVVQPGTSLTLSCEASGFTFSNYAMHWVRQAPGKGLEWVAIISFDTRNKKFAGSVQGRFSISRDNAKNSIYLQMNNLRPEDTGIYYCARDVFLSDYDSRGFDRTRGGFDYWGQGTLVTVSS VL: EIVMTQSPATLSVSPGEKATLSCRASESVGSSLAWYQQKLGQAPRLLIYGASTRATGIPARFSGSGSGAEFTLTISSLQSEDFAIYYCQQYGDWPLLTFGGGTKVEIK; 0.0214
fp.011 (antibody, V domains shown) VH: EVQLLESGGGLVQPGGSLRLSCAGSGFTFNNYAMTWVRQAPGRGLEWVSAISGSGGSSHYADSVKGRFTITRDNSKNTLYLQMNSLRAEDTAVYYCAFIDYYSGWSYYYGLDVWGQGTTVTVSS VL: EIVLTQSPATLSLSPGERATLSCRASQGVRTYVAWYQQKPGQAPRLLIYDASNRATGIPARFSGSGSGTDFTLTISSLEPEDFAVYYCQQRYNWPLCSFGQGTKLEIK; 0.0261
fp.003 (antibody, V domains shown) VH: VQLVESGGGVVQPGTSLRLSCTASGFSFSNYAMHWVRQAPGKGLEWVAIISFDTRNKEFADSVKGRFSISRDNSKNSLNLQMNSLRPEDTGVYYCARDLFLSDYDSRGYEPSRGGFDYWGQGTLVTVSS VL: EIVMTQSPATLSVSPGERATLSCRASQSVSSSLAWYQQKLGQPPRLLIYGASTRATGIPARFSGSGSGTEFTLTISSLKSEDSAVYYCQQYNDWPLLSFGGGTKVEIK; 0.0249
fp.001 (antibody, V domains shown) VH: VQLVESGGGVVQPGRPLRLSCSGSGFIFSNYAMHWVRQAPGKGLEWVAIISFDARNKRYADSVEGRFTISRDNSKNILYLQMNSLRLEDSAVYFCARDLFLSDYDNGVYDPTRGGFDYWGQGTLVTVSS VL: EIVMTQSPATLSLSPGERATLSCRASQSVNNRLAWYQQKLGQPPRLLISGASTRATGIPARFTGSGSGTEFTLTISSLQSEDFAVYYCQQYHDWPLLSFGGGTKVEIK; 0.0214
fp.006 (antibody, V domains shown) VH: VQLVESGGGVVQPGGSLRLSCAASGFNFNNYALHWVRQAPGKGLEWVAIISYEARNKKYGVSVMGRFSISRDNSKSIMYLEMNSLRVEDTGVYYCARDLFLSDYDRSGYDPTRGGFDHWGQGTLVTVSS VL: EIVMTQSPATLSVSPGERATLSCRASQSVSSSLAWYQHRFGQAPRLLISGASTRATGIPGRFSGSGSGTEFTLTISSLQSEDVAVYYCQQYGDWPLVTFGGGTKVEIK; 0.0144

Items follow; give EC50 for each.
1. fp.010 (antibody, V domains shown) VH: EVQLLESGGGLVQPGGSLRLSCAASGFTFSTYAMNWVRQAPGKGLEWVSAISSSGLSTQYADSVRGRFTISRDTSKNTLYLHMNSLRAGDTAVYYCAKVEYSGYDPRGPFDSWGQGTLVTVSS VL: DIQMTQSPSTLSASVGDRVTITCRASQSISGWLAWYQQKPGRAPKLLIYKASSLERGVPSRFSGSGSGTEFTLTISSLQPDDFATYYCQEYSSYPLCTFGQGTKLEIK
2. fp.002 (antibody, V domains shown) VH: VQLVESGGGVVQPGTSLRLSCAGSGFNFDNYAIHWVRQAPGQGLEWVAIISYEARNKKYAGSVTGRFSISRDNSKSMVYLQMDSLRGEDTAVYYCARDLFLSDYDRSGYDPTRGGFDLWGQGTLVTVSS VL: EIVMTQSPATLSVSPGERATLSCRASQSVSSSLAWYQHKLGQAPRLLIYGASTRATGIPGRFSGSGSGTEFTLTISSLQSEDVAIYYCQQYGDWPLVTFGGGTKVEIK
3. fp.008 (antibody, V domains shown) VH: VQLVESGGGVVQPGRSLRLSCRASGFRFNNYAMHWVRQAPGKGLEWVAIISYEARNEKYAASVKGRFSISRDNAKNTLYLQMNSLRPEDTAIYYCARDVFLSDYDQSGYDVTRGGFDYWGQGTLVTVSS VL: EIVMTQSPATLSVSPGESATLSCRASQSVSSSLAWYQHKFGQAPRLLIYGASTRATGIPDRFSGSGSGMEFTLTISSLQSEDVAIYYCQQYGDWPLVTFGGGTKVEIK
4. fp.004 (antibody, V domains shown) VH: VQLVESGGGVVQPGTSLRLSCVASGFTFSNYAMHWVRQAPGKGLEWVAIISFDTRNTASAASVKGRFNISRDNSKNSLYLQMNSLRPEDTGVYYCARDLFLSDYDSRGYDPITGGFDCWGQGTLVTVSS VL: EIVMTQSPAALSVSPGEGATLSCRASQSVGSRLAWYQQKLGRPPRLLIYGASTRATGIPARFSGSGSGTEFTLTISSLQSEDFAVYYCQQYNDWPLLTFGGGTKVKIK
5. fp.005 (antibody, V domains shown) VH: VQLVESGGGVVQPGNSLRLSCAASGFRFNNYAMHWVRQAPGKGLEWVAIISYEARNEKYADSVKGRFSISRDNAKNTLYLQMNSLRADDTGVYYCARDLFLSDYDTSGYDRTRGGFDYWGQGALVTVSS VL: EIVMTQSPATLSVSPGERATLSCRASQSVSNGLAWYQHRFGQPPRLLIYGASTRATGIPTRFSGSGSGTEFTLTISSLQSEDFAVYYCQQYDDWPLITFGGGTKVEIK

Ans.
1. 0.0451
2. 0.0245
3. 0.0226
4. 0.0267
5. 0.0231
